# TESTED_SYSTEM: human Elastase, ELANE (gene 1991) (UniProt P08246)
# Sequence (P08246 whole entry, looked up): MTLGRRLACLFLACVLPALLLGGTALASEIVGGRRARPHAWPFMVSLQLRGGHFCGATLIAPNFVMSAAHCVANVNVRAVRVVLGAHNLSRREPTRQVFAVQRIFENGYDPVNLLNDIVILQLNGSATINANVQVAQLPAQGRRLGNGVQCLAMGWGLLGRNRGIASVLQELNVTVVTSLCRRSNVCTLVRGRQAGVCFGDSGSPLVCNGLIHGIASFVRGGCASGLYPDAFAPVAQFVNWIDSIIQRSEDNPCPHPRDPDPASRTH
# ASSAY_REMARKS: NVS_ENZ_hElastase: NovaScreen (NVS) Enzymatic Assay for human Elastase (AID 2283153)
Inconclusive results are not listed. The source made the active and inactive calls. Rule for the calls: active = hit-call score of the fitted dose curve at least 0.9, where 1 is the maximum; inconclusive = response in the unintended direction; inactive = score below 0.9.
Labels: t = active, f = inactive

{"columns": ["COMPOUND", "CATEGORY_LABEL"],
 "data": [
  ["CCCCCCCCCCCCCCCCOS(=O)(=O)O", "t"],
  ["CC(C)CCCCCCOC(=O)C1CCCCC1C(=O)OCCCCCCC(C)C (stereo not given)", "f"],
  ["CCn1nc(C)c2c1C(=O)NCC(c1ccc(O)cc1)=N2", "f"],
  ["CCCCCCOC(=O)CC(CC(=O)OCCCCCC)(OC(=O)CCC)C(=O)OCCCCCC", "f"],
  ["c1ccc2c(c1)-c1cccc3c1c-2cc1ccccc13", "f"]
]}
